The reported measurements were obtained from patent US6506766B1.

assayed_system: human progesterone receptor-A [PRA] isoform (Homo sapiens, UniProt P06401)
Construct: host or cells: insect SF21 cells (baculovirus)
Sequence (P06401 1-769 isoform P06401-2): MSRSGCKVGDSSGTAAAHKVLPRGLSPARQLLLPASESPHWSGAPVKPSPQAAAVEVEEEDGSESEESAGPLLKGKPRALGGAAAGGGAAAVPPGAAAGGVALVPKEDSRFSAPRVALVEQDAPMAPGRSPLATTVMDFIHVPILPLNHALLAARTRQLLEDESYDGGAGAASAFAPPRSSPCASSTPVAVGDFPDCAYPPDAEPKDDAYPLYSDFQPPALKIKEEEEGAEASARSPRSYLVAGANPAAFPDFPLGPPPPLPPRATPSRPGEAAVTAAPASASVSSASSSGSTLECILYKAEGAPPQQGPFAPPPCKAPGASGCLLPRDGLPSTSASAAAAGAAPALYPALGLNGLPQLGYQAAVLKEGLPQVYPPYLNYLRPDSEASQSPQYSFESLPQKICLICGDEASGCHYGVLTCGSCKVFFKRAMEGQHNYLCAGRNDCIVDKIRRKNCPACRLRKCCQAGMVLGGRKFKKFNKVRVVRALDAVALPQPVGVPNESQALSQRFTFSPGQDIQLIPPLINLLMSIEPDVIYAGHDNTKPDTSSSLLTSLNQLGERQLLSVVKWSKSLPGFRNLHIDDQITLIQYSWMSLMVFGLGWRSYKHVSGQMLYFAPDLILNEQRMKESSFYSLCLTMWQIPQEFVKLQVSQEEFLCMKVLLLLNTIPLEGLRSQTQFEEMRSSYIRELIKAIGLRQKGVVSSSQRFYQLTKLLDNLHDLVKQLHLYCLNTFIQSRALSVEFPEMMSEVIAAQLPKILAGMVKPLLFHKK
method_description: Radioligand binding with human progesterone receptor cytosol ([3H]-progesterone competition)
condition_parameters: PRA cytosol expressed in insect SF21 cells, [3H]Prog ~0.8 nM, 4° C. overnight; Ki by Cheng-Prusoff, KL ~4.5 nM; read-out: Ki (nM) PR
value_kind: Ki

Illustrative cases are given below, each with its answer.
[[record]]
compound = "COc1cccc2c1-c1ccc3c(c1[C@H]([C@H]1C=C(CO)CCC1)O2)C(C)=CC(C)(C)N3 (relative stereo) [Example 148]"
assayed_system = "human progesterone receptor-A [PRA] isoform (Homo sapiens, UniProt P06401)"
reported_value = "≥ 10000 nM"

[[record]]
compound = "C=CCNc1cccc(C2Oc3cccc(OC)c3-c3ccc4c(c32)C(C)=CC(C)(C)N4)c1 (centres unmarked) [Example 117]"
assayed_system = "human progesterone receptor-A [PRA] isoform (Homo sapiens, UniProt P06401)"
reported_value = "≥ 10000 nM"

[[record]]
compound = "C=CCC1Oc2cccc(SC)c2-c2ccc3c(c21)C(C)=CC(C)(C)N3 (centres unmarked) [Example 342]"
assayed_system = "human progesterone receptor-A [PRA] isoform (Homo sapiens, UniProt P06401)"
reported_value = "≥ 10000 nM"

[[record]]
compound = "COc1cccc2c1-c1ccc3c(c1C(CC(=O)c1ccccc1)O2)C(C)=CC(C)(C)N3 (centres unmarked) [Example 47]"
assayed_system = "human progesterone receptor-A [PRA] isoform (Homo sapiens, UniProt P06401)"
reported_value = "≥ 10000 nM"


Lab note: next compound to report on.
Q: Form field: reported Ki of COC(=O)Oc1cccc2c1-c1ccc3c(c1C(c1cc(Cl)cc(Cl)c1)O2)C(C)=CC(C)(C)N3 (centres unmarked) [Example 81]
Ans: ≥ 10000 nM
